Item-by-item account of T/C
tested on: nude mice, HT29 intrarenal xenograft, tumor weight T/C; assay: NCI In Vivo Anticancer Drug Screen. Data for tumor model HT29;CX-1 Human Adenocarcinoma (MER+) (intrarenal inoculation) in NU/NU Swiss (nude) mice; conditions: endpoint: mean tumor weight change; dose: 450.0 mg/kg/injection; schedule: Q04DX004 (sc); vehicle: saline with Tween-80; higher = larger tumour
Records with an inconclusive call do not appear.
quantity_kind: T/C

INSERT INTO assay_data (molecule, system_tested, obs_value) VALUES
  ('S=c1[nH]cc2cnccn12', 'nude mice, HT29 intrarenal xenograft, tumor weight T/C', '97 % of control'),
  ('Nc1ccc(Cl)cc1N', 'nude mice, HT29 intrarenal xenograft, tumor weight T/C', '41 % of control'),
  ('CCOC(=O)c1cn(C)c2c1C(O)=C(C(=O)OC)CC(=O)N2', 'nude mice, HT29 intrarenal xenograft, tumor weight T/C', '52 % of control'),
  ('CCOC(=O)CNC(=O)CCCCSc1ncnc2nc[nH]c12', 'nude mice, HT29 intrarenal xenograft, tumor weight T/C', '103 % of control'),
  ('Oc1cc2ccccc2c(-c2c(O)c(O)cc3ccccc23)c1O', 'nude mice, HT29 intrarenal xenograft, tumor weight T/C', '55 % of control'),
  ('N#CCCSC(=S)C1CCCC1=N (configuration not stated)', 'nude mice, HT29 intrarenal xenograft, tumor weight T/C', '106 % of control'),
  ('NC(=S)N/N=C\c1ncccc1OCc1cccc(N)c1', 'nude mice, HT29 intrarenal xenograft, tumor weight T/C', '102 % of control');
